Data provenance is patent US20240009191A1.

Target: AT1R-CXCR2 heteromer (Homo sapiens, UniProt P25025+P30556)
Sequence (P25025 whole entry): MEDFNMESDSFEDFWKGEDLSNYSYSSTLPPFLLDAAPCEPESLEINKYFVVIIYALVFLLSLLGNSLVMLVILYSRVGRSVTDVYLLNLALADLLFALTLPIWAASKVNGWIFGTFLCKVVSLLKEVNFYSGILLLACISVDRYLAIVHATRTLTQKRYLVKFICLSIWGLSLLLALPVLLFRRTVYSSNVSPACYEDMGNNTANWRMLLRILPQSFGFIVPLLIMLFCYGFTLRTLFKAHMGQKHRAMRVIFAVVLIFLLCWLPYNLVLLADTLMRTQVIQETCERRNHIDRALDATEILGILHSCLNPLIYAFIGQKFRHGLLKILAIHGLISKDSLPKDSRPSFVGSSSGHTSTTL
Sequence (P30556 whole entry): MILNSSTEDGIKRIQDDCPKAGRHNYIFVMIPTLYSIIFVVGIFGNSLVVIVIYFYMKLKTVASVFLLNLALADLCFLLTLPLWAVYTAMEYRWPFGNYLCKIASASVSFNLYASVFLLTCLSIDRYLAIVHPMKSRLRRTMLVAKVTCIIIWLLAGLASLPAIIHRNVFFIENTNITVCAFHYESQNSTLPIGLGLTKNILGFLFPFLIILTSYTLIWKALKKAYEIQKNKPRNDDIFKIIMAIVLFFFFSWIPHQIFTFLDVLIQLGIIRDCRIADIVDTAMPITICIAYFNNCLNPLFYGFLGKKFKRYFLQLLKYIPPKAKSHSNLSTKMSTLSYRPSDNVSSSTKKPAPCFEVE
Assay: BRET trafficking of CXCR2/Rluc8 (Venus/Kras, Rab5, Rab8) with HA-AT1R, pre-treatment with vehicle or antagonists/inverse agonists
Assay type: cell-based
Conditions: 100 nM AngII only, 50 minutes after pre-treatment (10 μM); FIG. 17B, 17D
measured parameter: effect of AngII on CXCR2/Rluc8-Venus/Rab5 BRET

| substance smiles | result |
| --- | --- |
| CCOc1nc2cccc(C(=O)O)c2n1Cc1ccc(-c2ccccc2-c2nc(=O)o[nH]2)cc1 | completely inhibited |
| CCCCC1=NC2(CCCC2)C(=O)N1Cc1ccc(-c2ccccc2-c2nnn[nH]2)cc1 | completely inhibited |
| CCCCC(=O)N(Cc1ccc(-c2ccccc2-c2nnn[nH]2)cc1)[C@H](C(=O)O)C(C)C | completely inhibited |
